- study.target: Olfr74 (mOR-EV) wt (Mus musculus, UniProt Q920P1)
- Sequence (Q920P1 1-318): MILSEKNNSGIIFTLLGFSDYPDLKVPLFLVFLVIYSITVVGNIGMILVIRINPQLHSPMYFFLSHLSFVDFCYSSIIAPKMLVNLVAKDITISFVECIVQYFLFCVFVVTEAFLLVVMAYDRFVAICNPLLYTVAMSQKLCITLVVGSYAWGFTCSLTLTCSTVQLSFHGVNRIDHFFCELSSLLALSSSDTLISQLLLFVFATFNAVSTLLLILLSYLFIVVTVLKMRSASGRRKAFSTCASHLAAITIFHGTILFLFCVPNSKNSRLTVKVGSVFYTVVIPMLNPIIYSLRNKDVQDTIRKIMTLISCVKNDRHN
- method: cAMP reporter gene (SEAP) assay, Olfr74 wild type in Hana3A cells
- Format: cell-based
- particulars: Hana3A cells, SEAP reporter; read-out: EC50 Olfr74 wt

compound: CC(C)=CC1CC(C)CCO1 (stereo not shown) [Rose Oxide, rose oxide]
result.units: µM
EC50: 155
